target: Human LPA1 (Homo sapiens, UniProt Q92633); construct: the full-length cDNA for human LPA1 was obtained by PCR of the reverse transcription reaction; experiment: LPA1 calcium flux assay; settings: CHO cells expressing human LPA1, 10 nM LPA; read-out: HLPA1 Ca Flux IC50
Sequence (Q92633 whole entry): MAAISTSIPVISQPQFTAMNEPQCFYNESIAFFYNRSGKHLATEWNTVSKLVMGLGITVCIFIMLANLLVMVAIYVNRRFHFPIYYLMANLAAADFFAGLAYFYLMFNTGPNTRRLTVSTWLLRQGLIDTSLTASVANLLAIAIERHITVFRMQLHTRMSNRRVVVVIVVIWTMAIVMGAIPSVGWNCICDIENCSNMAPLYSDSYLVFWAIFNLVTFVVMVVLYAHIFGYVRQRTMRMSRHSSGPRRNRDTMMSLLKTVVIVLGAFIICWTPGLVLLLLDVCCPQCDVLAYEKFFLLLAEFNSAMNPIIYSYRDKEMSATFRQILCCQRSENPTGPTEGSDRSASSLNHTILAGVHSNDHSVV
pIC50: −log10 of the molar value.
reported metric: pIC50

Observe how each entry below is paired with its result.
{"molecule": "Cc1ccc([C@@H](C)OC(=O)Nc2c(C)noc2-c2ccc(-c3ccc(C4(C(=O)O)CC4)cc3)cc2)cc1", "value": "> 6.52"}
{"molecule": "Cc1noc(-c2ccc(-c3ccc(C4(C(=O)O)CC4)cc3)cc2)c1NC(=O)OC(C)c1cccc(Br)c1 (stereo not drawn)", "value": "> 6.52"}

Query molecule follows.
For record "Cc1ccccc1[C@@H](C)OC(=O)Nc1c(C)noc1-c1ccc(-c2ccc(C3(C(=O)O)CC3)cc2)cc1" the listed pIC50 is > 6.52

###

molecular target: Human LPA3 (Homo sapiens); construct: The full-length cDNA fragment for human LPA3 was obtained by PCR from the vector; expressed in transfected cells; cDNA from the Missouri S&T cDNA Resource Center; test: LPA3 calcium flux assay; assay type: cell-based; details: CHO cells expressing human LPA3, 10 nM LPA; read-out: HLPA3 Ca Flux IC50
Catalogue of IC50 readings, one per entry.

{"molecule": "Cc1noc(-c2ccc(-c3ccc(C4(c5nnn[nH]5)CC4)cc3)cc2)c1NC(=O)O[C@H](C)c1ccccc1", "value": "1000 to 10000 nM"}
{"molecule": "Cc1noc(-c2ccc(-c3ccc(C4(C(=O)O)CCCC4)cc3)cc2)c1NC(=O)O[C@H](C)c1ccccc1", "value": "1000 to 10000 nM"}
{"molecule": "Cc1noc(-c2ccc(-c3ccc(C4(C(=O)O)CC4)cc3)cc2)c1NC(=O)OC(C)c1ccccc1 (racemic)", "value": "1000 to 10000 nM"}
{"molecule": "Cc1noc(-c2ccc(-c3ccc(C4(C(=O)O)CC4)cc3)cc2)c1NC(=O)O[C@H](C)c1cccc(C(F)(F)F)c1", "value": "< 300 nM"}
{"molecule": "COc1ccc([C@@H](C)OC(=O)Nc2c(C)noc2-c2ccc(-c3ccc(C4(C(=O)O)CC4)cc3)cc2)cc1", "value": "> 10000 nM"}

For reference, reported IC50 for "Cc1ccccc1[C@@H](C)OC(=O)Nc1c(C)noc1-c1ccc(-c2ccc(C3(C(=O)O)CC3)cc2)cc1" stands at 300 to 1000 nM

Form: molecule = "CCc1noc(-c2ccc(-c3ccc(C4(C(=O)O)CC4)cc3)cc2)c1NC(=O)O[C@H](C)c1ccccc1" ; IC50 = 300 to 1000 nM

###

Molecular target: Human LPA3 (Homo sapiens, UniProt Q9UBY5)
Construct: The full-length cDNA fragment for human LPA3 was obtained by PCR from the vector; cDNA from the Missouri S&T cDNA Resource Center
Sequence (Q9UBY5 1-353): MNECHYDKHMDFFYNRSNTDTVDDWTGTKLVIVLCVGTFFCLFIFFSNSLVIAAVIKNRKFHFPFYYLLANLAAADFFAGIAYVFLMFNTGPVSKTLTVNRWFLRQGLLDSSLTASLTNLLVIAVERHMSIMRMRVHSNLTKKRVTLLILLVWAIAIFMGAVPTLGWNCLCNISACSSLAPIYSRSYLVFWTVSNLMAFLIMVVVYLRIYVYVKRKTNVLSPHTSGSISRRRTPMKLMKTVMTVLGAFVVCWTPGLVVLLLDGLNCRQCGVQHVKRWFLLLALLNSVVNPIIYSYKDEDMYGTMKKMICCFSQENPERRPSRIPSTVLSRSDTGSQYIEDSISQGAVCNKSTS
Test: LPA3 calcium flux assay
Settings: CHO cells expressing human LPA3, 10 nM LPA; read-out: HLPA3 Ca Flux IC50
reported metric: IC50

{"smiles": "Cc1noc(-c2ccc(-c3ccc(C4(C(=O)O)CC4)cc3)cc2)c1NC(=O)O[C@H](C)c1ccccc1Cl", "value": "0.3 to 1 µM"}

Note to self: IC50 recorded for "Cc1cccc([C@@H](C)OC(=O)Nc2c(C)noc2-c2ccc(-c3ccc(C4(C(=O)O)CC4)cc3)cc2)c1" was 0.3 to 1 µM

Lab note: "Cc1noc(-c2ccc(-c3ccc(C4(C(=O)O)CC4)cc3)cc2)c1NC(=O)O[C@H](C)c1ccccc1C#N" gave IC50 of 1 to 10 µM

###

Catalogue of compounds with associated pIC50
Biological target: Human LPA3 (Homo sapiens)
Construct: The full-length cDNA fragment for human LPA3 was obtained by PCR from the vector; cDNA from the Missouri S&T cDNA Resource Center
Sequence (Q9UBY5 1-353): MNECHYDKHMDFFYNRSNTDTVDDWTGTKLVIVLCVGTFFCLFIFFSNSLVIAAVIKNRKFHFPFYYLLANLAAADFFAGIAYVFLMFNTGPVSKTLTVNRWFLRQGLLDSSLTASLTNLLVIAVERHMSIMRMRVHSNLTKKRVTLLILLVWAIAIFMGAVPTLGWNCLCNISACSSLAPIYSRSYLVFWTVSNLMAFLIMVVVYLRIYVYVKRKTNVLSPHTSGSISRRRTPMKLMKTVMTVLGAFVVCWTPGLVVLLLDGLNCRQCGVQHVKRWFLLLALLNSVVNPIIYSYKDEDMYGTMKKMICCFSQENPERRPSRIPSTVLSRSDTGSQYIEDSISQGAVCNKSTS
Assay: LPA3 calcium flux assay
Settings: CHO cells expressing human LPA3, 10 nM LPA; read-out: HLPA3 Ca Flux IC50
pIC50: −log10 of the molar value.

Examples with answers:
{"compound": "Cc1noc(-c2ccc(-c3ccc(C4(C(=O)O)CC4)cc3)cc2)c1NC(=O)O[C@H](C)c1cc(Br)cc(Br)c1", "pIC50": "5.00 to 6.00"}
{"compound": "Cc1ccc([C@@H](C)OC(=O)Nc2c(C)noc2-c2ccc(-c3ccc(C4(C(=O)O)CC4)cc3)cc2)cc1", "pIC50": "5.00 to 6.00"}
{"compound": "Cc1noc(-c2ccc(-c3ccc(C4(C(=O)O)CC4)cc3)cc2)c1NC(=O)OCc1ccccc1", "pIC50": "< 5.00"}
{"compound": "Cc1noc(-c2ccc(-c3ccc(C4(C(=O)O)CC4)cc3)cc2)c1NC(=O)O[C@H](C)c1ccccc1", "pIC50": "5.00 to 6.00"}
{"compound": "Cc1noc(-c2ccc(-c3ccc(C4(c5nc(=O)o[nH]5)CC4)cc3)cc2)c1NC(=O)O[C@H](C)c1ccccc1", "pIC50": "5.00 to 6.00"}

Value of measured pIC50 for the entry "Cc1noc(-c2ccc(-c3ccc(C4(C(=O)O)CC4)cc3)cc2)c1NC(=O)OCC1CC1" : < 5.00

For this compound ( Cc1noc(-c2ccc(-c3ccc(C4(C(=O)O)CC4)cc3)cc2)c1NC(=O)OC(C)c1ccc(C(F)(F)F)cc1 (single isomer, unassigned) ), measured pIC50 is 5.00 to 6.00

Looking up "Cc1noc(-c2ccc(-c3ccc(C4(C(=O)O)CCC4)cc3)cc2)c1NC(=O)O[C@H](C)c1ccccc1" , I see its pIC50 listed as 5.00 to 6.00

Value of measured pIC50 for the entry "Cc1noc(-c2ccc(-c3ccc(C4(C(=O)NS(C)(=O)=O)CC4)cc3)cc2)c1NC(=O)O[C@H](C)c1ccccc1" : 5.00 to 6.00

Noted for "Cc1noc(-c2ccc(-c3ccc(C4(C(=O)O)CC4)cc3)cc2)c1NC(=O)O[C@H](C)c1ccccc1C(F)(F)F" : its pIC50 reads 5.00 to 6.00

Memo: Cc1noc(-c2ccc(-c3ccc(C4(C(=O)O)CC4)cc3)cc2)c1NC(=O)OC(C)C1CCCCC1 (centres unmarked) , reported pIC50: 5.00 to 6.00

So, "Cc1noc(-c2ccc(-c3ccc(C4(C(=O)O)CC4)cc3)cc2)c1NC(=O)O[C@H](C)C1CCC1" ? Its pIC50 was 5.00 to 6.00

Sample Cc1noc(-c2ccc(-c3ccc(C4(C(=O)O)CC4)cc3)cc2)c1NC(=O)O[C@H](C)C1CC1 (single isomer, unassigned) ; pIC50 observed: < 5.00

pIC50 reported for this compound Cc1noc(-c2ccc(-c3ccc(C4(C(=O)O)CC4)cc3)cc2)c1NC(=O)OC(C)c1cccc(Br)c1 (centres unmarked) : 6.00 to 6.52

###

target: Human LPA1 (Homo sapiens, UniProt Q92633); construct: the full-length cDNA for human LPA1 was obtained by PCR of the reverse transcription reaction; assay: LPA1 calcium flux assay; details: CHO cells expressing human LPA1, 10 nM LPA; read-out: HLPA1 Ca Flux IC50
pIC50: −log10 of the molar value.
reported metric: pIC50

{"compound": "Cc1noc(-c2ccc(-c3ccc(C4(C(=O)O)CC4)cc3)cc2)c1NC(=O)O[C@H](C)c1ccccc1Cl", "assay system": "Human LPA1 (Homo sapiens, UniProt Q92633)", "value": "> 6.52"}

Field pIC50 (entry Cc1noc(-c2ccc(-c3ccc(C4(C(=O)O)CC4)cc3)cc2)c1NC(=O)OC(C)c1ccccc1 (racemic) ) reads > 6.52

Looking up Cc1noc(-c2ccc(-c3ccc(C4(C(=O)O)CC4)cc3)cc2)c1NC(=O)OC(C)c1ccc(C(F)(F)F)cc1 (single isomer, unassigned) [Compound 14] , I see its pIC50 listed as > 6.52

For Cc1noc(-c2ccc(-c3ccc(C4(C(=O)O)CC4)cc3)cc2)c1NC(=O)OC(C)c1cccc(C#N)c1 (stereo not shown) the compound record lists pIC50 as > 6.52
